Target: human P450 11A1 (Homo sapiens)
Sequence (P05108 41-521 limits assumed): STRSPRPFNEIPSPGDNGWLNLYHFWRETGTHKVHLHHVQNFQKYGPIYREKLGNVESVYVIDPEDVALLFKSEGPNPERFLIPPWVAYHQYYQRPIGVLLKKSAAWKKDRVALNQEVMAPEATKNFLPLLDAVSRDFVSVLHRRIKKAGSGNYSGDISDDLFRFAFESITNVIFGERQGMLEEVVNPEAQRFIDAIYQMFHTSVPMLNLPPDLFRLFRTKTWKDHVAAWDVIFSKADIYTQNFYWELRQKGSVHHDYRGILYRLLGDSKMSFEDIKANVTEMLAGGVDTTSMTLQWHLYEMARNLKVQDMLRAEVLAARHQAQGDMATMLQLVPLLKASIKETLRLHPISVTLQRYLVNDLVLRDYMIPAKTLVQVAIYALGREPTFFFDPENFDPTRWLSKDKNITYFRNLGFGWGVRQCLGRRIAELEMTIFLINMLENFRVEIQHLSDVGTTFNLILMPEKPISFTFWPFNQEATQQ
Sequence (P00257 59-186 partner): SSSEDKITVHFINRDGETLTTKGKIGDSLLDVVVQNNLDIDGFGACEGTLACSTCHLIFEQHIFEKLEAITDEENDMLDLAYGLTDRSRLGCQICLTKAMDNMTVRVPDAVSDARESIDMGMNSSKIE
Assay: Single-turnover kinetics of P450 11A1 with [1,2-3H]-cholesterol (radio-HPLC)
Format: biochemical
Design: M A S T R S P R P F N E I P S P G D N; Met-Ala (N-terminal start residues in place of the transit peptide and Ile40) (N); made in house; host or cells: E. coli (P450 11A1 in C41(DE3); Adx and AdR in E. coli)
Details: second table, headed 10-fold excess (high) Adx, time 500 s
Property Name: concentration in single-turnover reaction (µM)
Output spec: scalar in µM, unitless text.

The compound identified as CC(C)CC[C@@H](O)[C@@H](C)[C@H]1CC[C@H]2[C@@H]3CC=C4C[C@@H](O)CC[C@]4(C)[C@H]3CC[C@]12C [22R-OH Chol, 22R-hydroxycholesterol] registered its concentration in single-turnover reaction at 0

The compound identified as `CC(C)CCC[C@@H](C)[C@H]1CC[C@H]2[C@@H]3CC=C4C[C@@H](O)CC[C@]4(C)[C@H]3CC[C@]12C` registered its concentration in single-turnover reaction at 0

The compound identified as `CC(=O)[C@H]1CC[C@H]2[C@@H]3CC=C4C[C@@H](O)CC[C@]4(C)[C@H]3CC[C@]12C` registered its concentration in single-turnover reaction at 4.5

The compound identified as CC(C)CC[C@@H](O)[C@](C)(O)[C@H]1CC[C@H]2[C@@H]3CC=C4C[C@@H](O)CC[C@]4(C)[C@H]3CC[C@]12C [20R,22R-(OH)2 Chol, (20R,22R)-Cholest-5-ene-3β,20,22-triol] registered its concentration in single-turnover reaction at 0

Numbers sourced from paper PMC10716780.
